Value source: the supplement of paper PMC4862054

system: Hs578T; assay: normalised viability (% of control), CellTiter-Blue; higher = more viable cells (about 100 = DMSO control); settings: 1000 nM; incubation time: 72 h
Can you tell me normalised viability for the items I'm about to list?

Give the measured normalised viability of NC1(c2ccc(-c3nc4ccn5c(=O)[nH]nc5c4cc3-c3ccccc3)cc2)CCC1 [MK-2206] .
85.2%

Given C[C@@H]1C[C@H]2[C@@H]3CCC4=CC(=O)C=C[C@]4(C)[C@@]3(F)[C@@H](O)C[C@]2(C)[C@@]1(O)C(=O)CO [Dexamethasone] , state its recorded normalised viability.
122%

Find the recorded normalised viability belonging to C[C@@H](CN1CC(=O)NC(=O)C1)N1CC(=O)NC(=O)C1 [Dexrazoxane] and report it.
88.8%

Please give the measured normalised viability for this compound: CC/C(=C(\c1ccccc1)c1ccc(OCCN(C)C)cc1)c1ccccc1 [Tamoxifen]
123%

# normalised viability lookup, item C[C@]12C=CC(=O)C=C1CC[C@@H]1[C@@H]2C(=O)C[C@@]2(C)[C@H]1CC[C@]2(O)C(=O)CO [Prednisone]
108%

Reported normalised viability, compound CCN(CC)CCOc1ccc(C(=C(Cl)c2ccccc2)c2ccccc2)cc1 [Clomifene] : ____
121%

Given the entry Nc1nc(Cl)nc2c1ncn2[C@@H]1O[C@H](CO)[C@@H](O)[C@@H]1F [Clofarabine] , report its measured normalised viability.
67.3%
